Tested on: SK-MEL-28
Test: NCI tumour cell line growth inhibition, 48 h
Activity calls are given as the source filed them. Cut-off read from the data, not from the text of the source: active = GI50 up to about 1.1 µM and inactive = higher.
Please state which outcome applies, choosing from y (active), n (inactive)

Lookup: Recorded call for O=c1[nH]c(=O)n(C2CC(O)C(CO)O2)cc1OCCCc1ccccc1 (stereo unspecified) ?
Found: n

---

Test system: HOP-92
Assay: NCI tumour cell line growth inhibition, 48 h
The source made the active and inactive calls. No stated cut-off is given here; in the data, active = GI50 up to about 1.1 µM and inactive = higher.
Thanks in advance; please answer with one of these: active, inactive

Lookup: Status in this test for C=CCC1C(=O)Nc2cccc3ncn(c23)C1=O (stereo not given) ?
Found: inactive

Lookup: Dear all, I need the recorded test outcome for CCCCCCCCCCCCCCCCOCC(CCl)OP(=O)(O)OP(=O)(O)OCC1OC(n2ccc(N)nc2=O)C(O)C1O (stereo not given) , thank you.
Found: inactive

Lookup: // outcome(item) with item = `CC[P+](C#Cc1ccccc1)(c1ccccc1)c1ccccc1`
Found: inactive

---
Lookup: What did the test return for `Nc1nc(Cl)c2ncn(Cc3ccccc3CCl)c2n1` ?
Found: inactive

Lookup: What is the recorded call for this compound in the test? O=C1C2C3C=CC(C2C(=O)N1CN1CCSCC1)C1C2C(=O)N(CN4CCSCC4)C(=O)C2C31 (stereo not given)
Found: inactive

Lookup: # lookup: test call for COCC(=O)OC1CCn2c1nc1c2C(=O)C(C)=C(NC(C)=O)C1=O (stereo not given)
Found: inactive

Lookup: Can you look up the reported call for C/C(=N\NC(N)=O)C(CN(C)C)C(c1ccccc1)c1c(O)c2ccccc2oc1=O (stereo not given) for me?
Found: active

Lookup: Write down the call the test reported for this compound. Item: `CCN(CC)CCSc1nc2cccc([N+](=O)[O-])c2[nH]1`
Found: inactive

Lookup: I'd appreciate the recorded outcome for CCOC(=O)c1cnccc1CC1(C#N)c2ccccc2C=CN1C(=O)c1ccccc1 (stereo not given) from this test.
Found: inactive

Lookup: Identify the outcome logged in this assay for the compound shown: `CN(CCCCN(C)CCc1ccc(Cl)c(Cl)c1)CCCCN1CCCC1`
Found: inactive

---

System: A549
Assay: NCI tumour cell line growth inhibition, 48 h
The source made the active and inactive calls. Rule as the data show it: active = GI50 up to about 1.1 µM and inactive = higher.
Choose the fitting class; nothing outside 1 = active, 0 = inactive is accepted.

Solved entries:
Lookup: Could you check what this test reported for CC(=O)NC1C(OCc2ccccc2)OC(CO)C(O)C1OCC(=O)N1CCCC1C(=O)N[C@@H](CCC(=O)NCCNCCNc1c2ccccc2nc2cccc([N+](=O)[O-])c12)C(N)=O (stereo not given in full) ?
Found: 0

Lookup: Could you please tell me the result logged for CCCCCCCCCCCCCCCCCCNc1nc(=O)n(C2CC(O)C(COP(=O)(O)O)O2)cc1F (stereo not given) in this assay?
Found: 0

Lookup: Assay outcome for `O=C1c2ccccc2C(=O)N1n1c(Cc2ccccc2)n[nH]c1=O` : what was it?
Found: 0

Continuing:
Lookup: So what was the verdict on `Oc1cc(-c2cccc3ccccc23)nc2ncccc12` in this test?
Found: 1

Lookup: Can you look up the reported call for `Cc1c2c(C#N)nccc2c(C)c2c1c1ccccc1n2Cc1ccccc1` for me?
Found: 0

---

Tested on: KM-20L2
Assay: NCI tumour cell line growth inhibition, 48 h
Activity calls are given as the source filed them. No stated cut-off is given here; in the data, active = GI50 up to about 1.1 µM and inactive = higher.
# valid calls are class 1 (active), class 0 (inactive); nothing else

Lookup: Please indicate how the test categorized CCOP(=O)(OCC)C1CCCCOC1=O (centres undefined) .
Found: class 0

Lookup: Kindly provide the recorded test outcome for the following compound: `Cc1nc2ccccc2c(=O)n1/N=C(\N=N\c1ccc(Cl)cc1)c1ccc(N(C)C)cc1`
Found: class 0

Lookup: // return assay outcome for `C/C(=N\NC(=S)N1CCC(N2CCCCC2)CC1)c1ccccn1`
Found: class 0

Lookup: Record request — test call for `[N-]=[N+]=CC(=O)C1(C(=O)C=[N+]=[N-])CC1`
Found: class 0

Lookup: What did this assay record as the result for `O=C(CC(=O)Nc1cccc(Cl)c1)NNCC(=O)Nc1nnc(-c2ccccc2)s1` ?
Found: class 0

Lookup: Assay outcome for NC(=O)c1ncn(C2OC(CO)C(O)C2O)c1NC(=S)NC(=O)c1ccccc1 (centres undefined) : what was it?
Found: class 0

Lookup: Lab log entry: CC(=O)OC1C(COC(N)=O)OC(n2c(-c3ccc(C)cc3)cc(-c3ccccc3)c(C#N)c2=O)C(OC(C)=O)C1OC(C)=O (centres undefined) — outcome as called in the assay?
Found: class 0

Lookup: In this assay, the call recorded for C/C(=N\NC(N)=O)C(CN1CCCCC1)C(c1ccccc1)c1c(O)c2ccccc2oc1=O (centres undefined) was what?
Found: class 0

Continuing:
Lookup: Can you look up the reported call for `Cc1cc2c(cc1C)[n+]([O-])c(C(=O)CC(=O)C(=O)Nc1c(C(C)C)cccc1C(C)C)c(C)[n+]2[O-]` for me?
Found: class 0

Lookup: Please state the recorded outcome for this compound: `CCCCCCNC(=O)CCN(C(=O)O)S(=O)(=O)c1ccc(NC(=O)c2ccccc2)cc1`
Found: class 0

Lookup: Hey, what did the test say about O=C(Cc1ccccc1)NN1C(=O)C(Cl)C1c1ccccc1 (centres undefined) ?
Found: class 0

Lookup: Please let me know the test result on file for C[C@]12CCC(=O)C(O)=C1CC[C@@H]1C2CC[C@]2(C)Nc3c(cnn3-c3ccccc3)CC12 (some centres undefined) .
Found: class 0

Lookup: Record request — test call for C[C@@H](NC1CCC[C@H]1O)c1ccccc1 (some centres undefined)
Found: class 0

Lookup: Write down the call the test reported for this compound. Item: C=Cc1cc(OC)c2c(c1)c(=O)oc1c2cc(OC)c2c(O)ccc(C3OC(C)C(O)C(C)(O)C3O)c21 (centres undefined)
Found: class 1

Lookup: What call does the record list for `O=C(/C=C/c1ccc(Cl)c(Cl)c1)c1ccc(F)cc1` ?
Found: class 0

Lookup: What classification did O=C(O)CCC(=O)N1c2ccccc2CC1c1c[nH]c2ccccc12 (centres undefined) end up with in this test?
Found: class 0

Lookup: Which result was noted for this compound in the test: `Clc1ccc(-n2nnc(C3=NCCCN3)c2-c2ccccc2)cc1`
Found: class 0

Lookup: Check the results log: what was the call for CC12OC3(O)C4C5CC(C6C5C3C61)C42 (centres undefined) ?
Found: class 0

Lookup: Name the outcome recorded for `O=C(Cn1ccnc1[N+](=O)[O-])NCc1ccc(F)cc1` in the assay.
Found: class 0
